B1: Lysozyme C, P61626 (parent)
chain: MKALIVLGLVLLSVTVQGKVFERCELARTLKRLGMDGYRGISLANWMCLAKWESGYNTRATNYNAGDRSTDYGIFQINSRYWCNDGKTPGAVNACHLSCSALLQDNIADAVACAKRVVRDPQGIRAWVAWRNRCQNRDVRQYVQGCGV

Variants of: B1
Settings: Homo sapiens; pH 2.7; Thermal; DSC; glycine 0.05 M; reversible: yes; structure 1LZ1; whole UniProt chain shown
value.type: heat capacity change of unfolding (kcal/mol/K)
One number for each entry, in kcal/mol/K.

Example entries and their recorded answers appear below.
| variant.string | quantity.unit | heat capacity change of unfolding |
| --- | --- | --- |
| I74F | kcal/mol/K | 1.82 |
| I77G | kcal/mol/K | 1.24 |
| I77A | kcal/mol/K | 1.46 |
| I77V | kcal/mol/K | 1.2 |
| I74V | kcal/mol/K | 1.34 |
| I77M | kcal/mol/K | 1.27 |

// for each variant below, give its heat capacity change of unfolding
1. I74T
2. I74L
3. I77L
4. I77Y

[1.08, 1.41, 1.27, 1.34]
